Assay target: Cannabinoid receptor 1 (Homo sapiens, UniProt P21554)
Sequence (P21554 whole entry): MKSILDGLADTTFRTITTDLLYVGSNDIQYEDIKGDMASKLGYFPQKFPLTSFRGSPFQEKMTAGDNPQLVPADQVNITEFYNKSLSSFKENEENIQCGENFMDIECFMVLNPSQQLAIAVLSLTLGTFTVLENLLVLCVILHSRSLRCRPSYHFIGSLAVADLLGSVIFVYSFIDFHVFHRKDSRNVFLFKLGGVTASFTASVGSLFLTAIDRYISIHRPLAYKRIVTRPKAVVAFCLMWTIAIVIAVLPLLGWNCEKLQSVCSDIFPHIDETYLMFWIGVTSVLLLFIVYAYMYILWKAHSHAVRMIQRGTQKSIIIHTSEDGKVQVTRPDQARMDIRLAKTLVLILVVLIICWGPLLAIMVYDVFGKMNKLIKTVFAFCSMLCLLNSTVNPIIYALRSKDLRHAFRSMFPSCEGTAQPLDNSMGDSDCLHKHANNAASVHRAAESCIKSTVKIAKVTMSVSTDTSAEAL
Run description: Inverse agonist activity at human cannabinoid CB1R expressed in CHO cells assessed as effect on cAMP accumulation
pIC50: −log10 of the molar value.
Assay endpoint: pIC50

A selection of reference data follows.
{"Compound smiles": "CC(C)c1nc(N)c2cc(-c3ccc(Cl)cc3)c(-c3ccccc3Cl)nc2n1", "Assay target": "Cannabinoid receptor 1 (Homo sapiens, UniProt P21554)", "pIC50": 6.72}
{"Compound smiles": "CC(C)(C)c1nc2nc(-c3ccccc3Cl)c(-c3ccc(Cl)cc3)cc2c2nncn12", "Assay target": "Cannabinoid receptor 1 (Homo sapiens, UniProt P21554)", "pIC50": 8.10}
{"Compound smiles": "CC(C)(C)c1nc(-c2ccc(F)cc2)c2cc(-c3ccc(Cl)cc3)c(-c3ccccc3Cl)nc2n1", "Assay target": "Cannabinoid receptor 1 (Homo sapiens, UniProt P21554)", "pIC50": 9.20}
{"Compound smiles": "O=c1[nH]c(-c2ccc(Cl)cc2)nc2nc(-c3ccccc3Cl)c(-c3ccc(Cl)cc3)cc12", "Assay target": "Cannabinoid receptor 1 (Homo sapiens, UniProt P21554)", "pIC50": 7.23}
{"Compound smiles": "Cc1nc(O)c2cc(-c3ccc(Cl)cc3)c(-c3ccccc3Cl)nc2n1", "Assay target": "Cannabinoid receptor 1 (Homo sapiens, UniProt P21554)", "pIC50": 5.60}
{"Compound smiles": "CC(C)c1nc(OCc2ncon2)c2cc(-c3ccc(Cl)cc3)c(-c3ccccc3Cl)nc2n1", "Assay target": "Cannabinoid receptor 1 (Homo sapiens, UniProt P21554)", "pIC50": 8.96}
{"Compound smiles": "CC(C)Nc1nc(C(C)(C)C)nc2nc(-c3ccccc3Cl)c(-c3ccc(Cl)cc3)cc12", "Assay target": "Cannabinoid receptor 1 (Homo sapiens, UniProt P21554)", "pIC50": 8.39}
{"Compound smiles": "CCN(CC)C(=O)c1nc(NC(C)C)c2cc(-c3ccc(Cl)cc3)c(-c3ccccc3Cl)nc2n1", "Assay target": "Cannabinoid receptor 1 (Homo sapiens, UniProt P21554)", "pIC50": 6.82}

P = CC(C)(C)c1nc2nc(-c3ccccc3Cl)c(-c3ccc(Cl)cc3)cc2c(=O)[nH]1
Q = CC(C)c1nc2nc(-c3ccccc3Cl)c(-c3ccc(Cl)cc3)cc2c(=O)n1Cc1ncon1
R = CCN(CC)c1nc(C(C)(C)C)nc2nc(-c3ccccc3Cl)c(-c3ccc(Cl)cc3)cc12
Qu. Endpoint returns the given compounds ordered by ascending pIC50. Use the labels to give the ranking in the order requested.
Ans. Q, P, R
(Q: 7.09, P: 8.13, R: 8.66)

====

Run description: Plasma clearance in dog
Format: ADME, organism-based, Canis lupus familiaris
Assay endpoint: clearance (mL/min/kg)
Unit mL/min/kg implied. Number only.

Sample CC(C)(C)c1nc2nc(-c3ccccc3Cl)c(-c3ccc(C#N)cc3)cc2c2n[nH]c(=O)n12 ; clearance observed: 24

====

Assay target: Cannabinoid receptor 1 (Homo sapiens)
Run description: Inverse agonist activity at human cannabinoid CB1R expressed in CHO cells assessed as effect on cAMP accumulation
pIC50: −log10 of the molar value.
Assay endpoint: pIC50

a = Cc1nc(N)c2cc(-c3ccc(Cl)cc3)c(-c3ccccc3Cl)nc2n1
b = CC(C)(C)c1nc2nc(-c3ccccc3Cl)c(-c3cnccc3C#N)cc2c2n[nH]c(=O)n12
c = CC(C)(C)c1nc2nc(-c3ccccc3Cl)c(-c3cccc(Cl)c3)cc2c2n[nH]c(=O)n12
d = COc1ccc(-c2cc3c(nc2-c2ccccc2Cl)nc(C(C)(C)C)n2c(=O)[nH]nc32)cc1
e = CC(C)(C)c1nc(N2CCNCC2)c2cc(-c3ccc(Cl)cc3)c(-c3ccccc3Cl)nc2n1
Qu. Hey, can you sort those compounds up there by pIC50, smallest first? # format: label list in the order the request specifies
Ans. a, b, c, d, e
(a: 5.82, b: 7.00, c: 7.47, d: 8.52, e: 8.72)
